target: Human SARS-CoV-2_Wuhan S (SmT1) (SARS-CoV-2 (Wuhan), UniProt P0DTC2 14-1208); assay: SPR, VHH over immobilised S
endpoint: koff
Show the value, then the unit it is measured in.

Exam item: Report measured koff; entry is NRCoV2-MRed03 VHH (VHH) VHH: EVQLVESGGGLVQPGGSLRLSCAAIGFTLDYYAIGWFRQAPGKEREGVSCISSSDGSTYYADSVKGRFTISRDNAKNTVYLQMNSLKPEDTAVYYCATDAFATCDSWYAQIAQYDFRGQGTQVTVSS
Marked response: 0.000121 s⁻¹

Exam item: Report measured koff; entry is NRCoV2-15 VHH (VHH) VHH: EVQLVSSGGGLVEAGGSLRLSCIASGSTSGRNTMGWFRQAPGKQREWVAIVSTSGATNYAGSVKGRFTLSRDNAKNAVYLQMNNLKPEDTAVYYCYAAYGGGGDYWGQGTQVTVSS
Marked response: 0.000222 s⁻¹

Exam item: Report measured koff; entry is NRCoV2-S2G3 VHH (VHH) VHH: QVQLVQSGGGSVQAGGSLRLSCAASGSTFGIFLMGWRRQAPGKQRELVAHITSGGATNYADSVKGRFTISRDNAKNTVYLQMNSLEPEDTAVYYCYTTKRDDASVYWGQGTQVTVSS
Marked response: 0.000606 s⁻¹

Exam item: Report measured koff; entry is NRCoV2-11 VHH (VHH) VHH: EVQLVSSGGGLVQPGGSLRLSCAASGSSLDSYSVSWFRQAPGKEREWISFISRYYSSTYYTDSVKGRFTTSRDGDQKTVHLQMNSLKPEDTAVYYCAARSRDFSSPFSATDTYTSWGQGTQVTVSS
Marked response: 1.71e-05 s⁻¹
